- ASSAYED TARGET: human recombinant Yes [a.a. 2–543 (end)] (Homo sapiens, UniProt P07947)
- Construct: human recombinant Yes [a.a; 2–543 (end)]; purchased BPS Bioscience 40488
- Sequence (P07947 2-543): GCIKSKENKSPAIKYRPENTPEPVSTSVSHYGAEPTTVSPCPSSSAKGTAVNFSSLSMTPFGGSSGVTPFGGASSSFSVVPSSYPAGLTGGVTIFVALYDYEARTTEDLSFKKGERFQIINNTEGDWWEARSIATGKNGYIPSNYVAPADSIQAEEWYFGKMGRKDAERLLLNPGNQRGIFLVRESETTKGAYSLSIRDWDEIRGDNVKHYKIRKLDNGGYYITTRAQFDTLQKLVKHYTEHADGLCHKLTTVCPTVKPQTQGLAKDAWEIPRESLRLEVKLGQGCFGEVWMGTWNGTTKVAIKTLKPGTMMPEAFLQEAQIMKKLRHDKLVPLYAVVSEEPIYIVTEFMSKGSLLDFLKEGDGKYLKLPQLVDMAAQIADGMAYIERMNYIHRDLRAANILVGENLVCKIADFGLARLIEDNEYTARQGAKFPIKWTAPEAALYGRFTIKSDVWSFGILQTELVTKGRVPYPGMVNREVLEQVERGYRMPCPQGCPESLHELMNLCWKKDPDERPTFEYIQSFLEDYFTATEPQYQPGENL
- TEST: ADP-Glo kinase assay, inhibition rates of Yes phosphorylation activity (first and second screening)
- Assay type: biochemical
- CONDITIONS USED: first screening; mean of n = 4 wells; 10 μmol L−1 compound
What First screening IR (inhibition rate) was measured for each of the following?
Give bare numbers, in %.

Below, each entry is followed by its recorded First screening IR (inhibition rate) result.
MOLECULE	QUANTITY UNIT	First screening IR (inhibition rate)
NC(=O)C(NCCCN1CCc2ccccc21)c1ccccc1 (centres unmarked)	%	-17
O=C(CCCSc1ccccc1)Nc1n[nH]c(-c2ccc(F)cc2)n1	%	6
CCCN(CCC)c1ccc(/C=C/C(=O)c2ccc3c(c2)NC(=O)CO3)cc1	%	26
O=C(CN1CCN(c2nc(-c3ccccn3)nc3scc(-c4ccccc4)c23)CC1)N1CCCCC1	%	13
Cc1noc(C)c1COC(=O)c1c[nH]cc1-c1ccc(Cl)s1	%	0

Quick request: First screening IR (inhibition rate) for each listed item, please.
1. c1ccc(-c2nc(NCc3ccc(-n4cncn4)cc3)no2)cc1
2. COc1ccc(NC(C)=O)cc1S(=O)(=O)N(C)Cc1cccc(OC)c1OC
3. Cc1nccn1-c1cncc(NCCOCCS(C)(=O)=O)n1

-10
2
17

Quick request: First screening IR (inhibition rate) for each listed item, please.
1. CCN(CCCNC(=O)c1cn(-c2ccccc2)nc1-c1cccnc1)c1ccccc1
2. CC(=O)Nc1ccc(Nc2cc(C(C)(C)C)nc3c(-c4ccccc4Cl)c(C)nn23)cc1
3. CC(C(=O)NC(c1ccccc1)c1ccccc1)N1CCN(c2ncnc3c2cnn3C)CC1 (centres unmarked)

1. -8
2. 6
3. 64

Quick request: First screening IR (inhibition rate) for each listed item, please.
1. Cn1ncc2c(N3CCNCC3)ncnc21
2. CSc1ccc(CSCc2nc(N)nc(Nc3ccccc3)n2)cc1
3. Cc1cc(-c2ccccc2)cc2c3ccccc3c3ccccc3[n+]12.[O-][Cl+3]([O-])([O-])[O-]
4. Cc1cc(S(C)(=O)=O)c(C)c(S(=O)(=O)N2CCCCCC2)c1
5. Cc1nn(CCC(=O)O)c2nc(-c3cccs3)cc(C(=O)O)c12
6. O=C(O)/C=C/c1cccc(NS(=O)(=O)/C=C/c2ccccc2)c1
7. O=C(OCC(=O)N1N=C(c2ccc(Cl)cc2)CC1c1ccco1)c1cc(-c2ccco2)nc2ccccc12 (centres unmarked)
8. CC(Sc1nc2nn(-c3ccccc3)c(=O)c-2c2n1CCCCC2)C(=O)NC(=O)NC1CCCCC1 (centres unmarked)

1. -11
2. -15
3. 4
4. 6
5. -2
6. 1
7. 0
8. 7

* * *

- ASSAYED TARGET: human recombinant Yes [a.a. 2–543 (end)] (Homo sapiens, UniProt P07947)
- Construct: human recombinant Yes [a.a; 2–543 (end)]; purchased BPS Bioscience 40488
- TEST: ADP-Glo kinase assay, inhibition rates of Yes phosphorylation activity (first and second screening)
- Type: biochemical
- CONDITIONS USED: first screening; mean of n = 4 wells; 10 μmol L−1 compound
What First screening IR (inhibition rate) was measured for each of the following?
Numbers only, in %.

Below, each entry is followed by its recorded First screening IR (inhibition rate) result.
MOLECULE	First screening IR (inhibition rate), %
CCOC(=O)Cn1ccc2cc(NC(=O)c3sc(-c4ccccc4)nc3C)ccc21 [Compound Z968524204]	2
COC(=O)c1ccc2c(=O)[nH]c(COC(=O)Cc3ccsc3)nc2c1 [Compound Z54469331]	2

Quick request: First screening IR (inhibition rate) for each listed item, please.
1. c1ccc(-c2nc(Sc3n[nH]c(-c4ccncc4)n3)nc3ccccc23)cc1 [Compound Z271700602]
2. CC1CC(CNC(=O)c2cccc(O)c2)CN1Cc1ccccc1 (stereo not shown) [Compound Z1633590863]

1: -1; 2: 1
